The values you see were collected from PubChem BioAssay.

tested.target: Concanavalin-A (Canavalia ensiformis)
method: ConA small-molecule binders, primary screen, artefact control for SMM control protein annotation, biochemical, small-molecule microarray, Alexa647 label, 635 nm (AID 1127);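 also: z combines 667 nm emission intensity with signal-to-noise across three replicate slides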
condition.parameters: ConA-A647 binding fluorescence, higher = more signal
Rule: composite z-score of -0.9 or more gives 1; anything lower gives 0.

compound	qualitative.label
CC(C)(C)N1CC=CC23O[C@@H]4C=CCOC(=O)[C@@H]4[C@H]2C(=O)N(CCCO)[C@@H]3C1=O (stereo partly specified)	0
C[C@H]1ON(c2ccc(C(=O)OC(C)(C)C)cc2)[C@@H](c2ccc(O)cc2)[C@@H]1C(=O)N1C(=O)OC[C@@H]1c1ccccc1	1
C=CC[C@H](OC(=O)Nc1ccc(OC)cc1)c1ccc(O)c2ccccc12	1
O=C1O[C@@H](c2ccccc2)[C@@H](c2ccccc2)N2[C@@H](c3ccc(O)cc3)[C@]3(C(=O)Nc4ccccc43)[C@@H](C(=O)Nc3nc4ccccc4s3)[C@H]12	1
COCCOC(=O)N1C(=O)[C@@]2(c3cc(C#CC4=CCCCC4)ccc31)[C@H](c1ccccc1OCCO)N1[C@H](c3ccccc3)[C@H](c3ccccc3)OC(=O)[C@H]1[C@@H]2C(=O)N1CCc2cc(OC)c(OC)cc2C1	1

###

Tested on: Sonic hedgehog protein (Shh)
method: small-molecule binders of Shh protein, primary screen, biochemical, small-molecule microarray, 635/667 nm fluorescence (AID 1151);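 also: Shh protein binding to compounds spotted on small-molecule microarray slides; score combines spot fluorescence intensity with signal-to-noise across triplicate slides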
condition.parameters: small-molecule microarray binding, 635 nm fluorescence; higher = more signal
Decision: composite z-score >= 0.8 yields yes, all other cases yield no.

compound	qualitative.label
C=CCN1C(=O)[C@@]2(CCC(=O)OC(C)(C)C)N=C(c3ccc(OCCCO)cc3)O[C@H]2c2ccccc21	yes
COCCCNC(=O)[C@@]1(Sc2ccc(C)cc2)CC(=O)N(Cc2cc(C(F)(F)F)cc(C(F)(F)F)c2)[C@@H]1c1ccc(CO)cc1	yes
COc1ccccc1CN1C(=O)c2ccccc2[C@@H](C(=O)NC(C)C)[C@@H]1c1ccc(CO)cc1	yes
CC1CC/C=C\[C@H]2OC34C=CCN(c5ccc6ccccc6c5)C(=O)[C@H]3N(C(CO)C(C)C)C(=O)[C@@H]4C2C(=O)O1 (stereo partly specified)	no
CCOC(=O)[C@H]1C/C=C/C[C@H](C(=O)OCC)C(=O)O[C@H]2[C@@H](OC)O[C@H](CO)[C@@H](OC(=O)Nc3ccc(OC)cc3)[C@@H]2OC1=O	no
O=C1OCC=C[C@H]2OC34C=CCN(Cn5nnc6ccccc65)C(=O)[C@H]3N(CCCCCCO)C(=O)[C@@H]4[C@@H]12 (stereo partly specified)	no
O=C1O[C@@H](c2ccccc2)[C@@H](c2ccccc2)N2[C@@H](c3ccc(O)cc3)[C@]3(C(=O)Nc4ccc(C#CCCO)cc43)[C@@H](C(=O)Nc3nc4ccccc4s3)[C@H]12	no
COc1cc2c(cc1O)C(C)N(Cc1cc3c(cc1Br)OCO3)CC2 (stereo unspecified)	no
COc1ccc(C#Cc2ccc3c(c2)[C@]2(C(=O)N3)[C@H](C(=O)N3CCc4cc(OC)c(OC)cc4C3)[C@H]3C(=O)O[C@H](c4ccccc4)[C@H](c4ccccc4)N3[C@@H]2c2ccc(O)cc2)cc1	no
C=C(COC)/C(=C/C[C@@H](OC(=O)c1ccncc1)c1ccc(CO)o1)c1cnc2ccccc2c1	yes
C[C@]1(C(=O)NCCN2CCOCC2)c2ccccc2C(=O)N(Cc2ccc(OC(F)(F)F)cc2)[C@H]1c1ccc(CO)cc1	no
O=C1O[C@H](c2ccccc2)[C@H](c2ccccc2)N2[C@H]1[C@@H](C(=O)O)[C@]1(C(=O)Nc3ccccc31)[C@H]2c1ccc(O)cc1	no
COc1ccc(NC(=O)O[C@H]2[C@H](OC(=O)Nc3ccc4c(c3)OCO4)[C@@H](OC(=O)Nc3ccc4c(c3)OCO4)[C@@H](OC)O[C@@H]2CO)cc1	yes
C=CC[C@@]1(C(=O)N2CCCCC2)N=C(c2ccc(OCCCO)cc2)O[C@@H]1c1ccccc1	no
CC=CC(O)C1C=CC2C(=O)N(c3ccccc3)C(=O)C2N1Nc1ccccc1 (stereo unspecified)	no
CCOC(=O)C[C@H]1[C@H](OC(=O)c2ccccc2-c2ccccc2)[C@@H](NC(=O)c2ccc3ccccc3n2)c2cc(OCCCO)ccc2N1C(=O)c1ccc2ccccc2n1	no
COCCOC(=O)N1C(=O)[C@@]2(c3cc(C#CC4=CCCCC4)ccc31)[C@H](c1ccccc1OCCO)N1[C@H](c3ccccc3)[C@H](c3ccccc3)OC(=O)[C@H]1[C@@H]2C(=O)N1CCc2cc(OC)c(OC)cc2C1	yes
C=CCOC(=O)[C@H]1[C@@H]2C(=O)O[C@@H](c3ccccc3)[C@@H](c3ccccc3)N2[C@@H](c2ccc(OCCOC(=O)[C@H]3C[C@H]4C(=O)N[C@@H](Cc5ccccc5)C(=O)N4[C@H]3c3ccc(O)cc3)cc2)[C@]12C(=O)Nc1ccc(I)cc12	yes
CCOc1cc(C(O)C2C=CC3C(=O)N(C)C(=O)C3N2N2CCCCC2)ccc1O (stereo unspecified)	no
O=C1C2C=CC(C(O)c3cc(C(F)(F)F)cc(C(F)(F)F)c3)N(Nc3ccc([N+](=O)[O-])cc3)C2C(=O)N1c1ccccc1 (stereo unspecified)	no
C=CCC(OC(C)=O)[C@@H]1[C@@H](N(Cc2cc3ccccc3o2)C(=O)c2ccc(C)cc2)c2cc(OCCCO)ccc2N1C(=O)Cc1ccc2ccccc2c1 (stereo partly specified)	no
CC(C)CNC(=O)[C@@]1(c2ccc([N+](=O)[O-])cc2)CC(=O)N(C2CCCCC2)[C@@H]1c1ccc(CO)cc1I	no
CC(C)(C)OC(=O)CC[C@@]1(C(=O)O)N=C(c2ccc(OCCCO)cc2)O[C@@H]1c1ccccc1	no
C=CC[C@]1(C(=O)N(C)C)N=C(c2ccc(OCCCO)cc2)O[C@H]1c1ccccc1N=[N+]=[N-]	no
C=CCOC(=O)[C@@H]1[C@H]2C(=O)O[C@H](c3ccccc3)[C@H](c3ccccc3)N2[C@H](c2ccc(OCCOC(=O)[C@H]3C[C@H]4C(=O)N[C@@H](CCCCN(C)C)C(=O)N4[C@H]3c3cccc(OCCO)c3)cc2)[C@@]12C(=O)Nc1ccc(I)cc12	yes
CN(C)CCCNC(=O)[C@@]1(c2ccc([N+](=O)[O-])cc2)CC(=O)N(CC23CC4CC(CC(C4)C2)C3)[C@@H]1c1ccc(CO)cc1	yes

###

method: small-molecule microarray binders of probe aWnt5a, primary screen, biochemical, biotinylated probe, 635/667 nm fluorescence (AID 1113);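 also: score merges 667 nm fluorescence intensity with signal-to-noise per printed feature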
condition.parameters: higher = more signal
Lab note: anything with composite z-score at or over -0.1 counts as MET; the rest go in NOT MET.

molecule	qualitative.label
CC(C)(C)OC(=O)CC[C@]1(C(=O)O)N=C(c2ccc(OCCCO)cc2)O[C@H]1c1ccccc1CN=[N+]=[N-]	NOT MET
COc1cc2c(cc1O)C(C)N(Cc1cc3c(cc1Br)OCO3)CC2 (configuration not stated)	MET
CC(C)(C)OC(=O)CC[C@@]1(C(=O)O)N=C(c2ccc(OCCCO)cc2)O[C@@H]1c1ccccc1	MET
COc1c(C)cc(-c2cc3c(c(-c4ccccc4)n2)[Si](C(C)C)(C(C)C)OC3)cc1C	NOT MET
CC1CC/C=C\[C@H]2OC34C=CCN(CCN5CCOCC5)C(=O)[C@H]3N(CCO)C(=O)[C@@H]4C2C(=O)O1 (some centres not stated)	NOT MET
COCCOC(=O)N1C(=O)[C@@]2(c3cc(C#Cc4ccc(OC)cc4)ccc31)[C@H](C(=O)N1CCN(c3ncccn3)CC1)[C@H]1C(=O)O[C@H](c3ccccc3)[C@H](c3ccccc3)N1[C@@H]2c1ccccc1OCCO	NOT MET
CC(C)(C)N1CC=CC23O[C@@H]4C=CCOC(=O)[C@@H]4[C@H]2C(=O)N(CCCO)[C@@H]3C1=O (some centres not stated)	NOT MET

###

method: small-molecule binders of probe aLefty1, primary screen, biochemical, small-molecule microarray, 635/667 nm fluorescence (AID 1153);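 also: score merges spot fluorescence with signal-to-noise ratio from the scanned slide images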
condition.parameters: higher = more signal
measured.metric: composite z-score

molecule	measured.metric	data.value
C=C(CCCC)/C(=C/C[C@@H](OC(=O)c1ccncc1)c1cccc(OCCO)c1)c1cnc2ccccc2c1	composite z-score	0.284
C=C[C@@H](C)[C@H](OC(=O)Nc1ccc(SC)cc1)c1ccc(OCCO)cc1	composite z-score	-0.33
O=C(N1CCCCC1)[C@@]1(Cc2ccccc2)COC(c2ccc(OCCCO)cc2)=N1	composite z-score	0.461
COC(=O)[C@@]1(Cc2ccc(F)cc2)[C@H]2c3cc(C(=O)N4CCCC4)n(CCc4c[nH]c5ccc(OC)cc45)c3C[C@H]2CN1C(=O)c1ccccc1	composite z-score	1.97
COc1ccccc1CN1C(=O)c2ccccc2[C@](Cc2ccccc2I)(C(=O)NC(C)C)[C@@H]1c1ccc(CO)cc1	composite z-score	0.0494
C=CCOC(=O)[C@H]1[C@@H]2C(=O)O[C@@H](c3ccccc3)[C@@H](c3ccccc3)N2[C@@H](c2ccc(OCCOC(=O)[C@H]3C[C@H]4C(=O)N[C@@H](CCCC[N+](C)(C)C)C(=O)N4[C@H]3c3cccc(OCCO)c3)cc2)[C@]12C(=O)Nc1ccc(I)cc12	composite z-score	-0.17
CC(C)c1ccc(NN2C(C(O)c3ccco3)C=CC3C(=O)N(c4ccccc4)C(=O)C32)cc1 (configuration not stated)	composite z-score	0.409
